experiment_summary: Hygroscopy, dynamic vapour sorption (DVS) isotherms (Example 15)
Assay type: physicochemical
experimental_setup: 40% Relative humidity
outcome_measure: Change in mass [%], Sorption

compound | assay_value
O=C([O-])c1cc(NC(=O)C2(c3ccc(C(F)(F)F)cc3F)CC2)ccc1-c1cnn(C2CCC2)c1.[K+] [Potassium salt] | 8.59%
O=C([O-])c1cc(NC(=O)C2(c3ccc(C(F)(F)F)cc3F)CC2)ccc1-c1cnn(C2CCC2)c1.[Na+] [Sodium salt] | 2.95%
N=C(N)NCCC[C@H](N)C(=O)O.O=C(O)c1cc(NC(=O)C2(c3ccc(C(F)(F)F)cc3F)CC2)ccc1-c1cnn(C2CCC2)c1 [Arginine Salt] | 4.25%
O=C(O)c1cc(NC(=O)C2(c3ccc(C(F)(F)F)cc3F)CC2)ccc1-c1cnn(C2CCC2)c1 [free acid] | 0.14%
